system: Mycobacterium tuberculosis; assay: Antitubercular activity against Mycobacterium tuberculosis H37Rv by BACTEC460 radiometric susceptibility assay; type: functional
So basically, if MIC comes in under 20 µg/mL it's fulfilled, and if it's 20 µg/mL or more it's not fulfilled.

{"compound": "CCOC(=O)/C=C/CO/N=C/C=C(\\C)CCCC(C)CCCC(C)CCCC(C)C (stereo not drawn)", "target.or.test.system": "Mycobacterium tuberculosis", "assigned.class": "fulfilled"}
{"compound": "CN[C@@H]1[C@H](O[C@H]2[C@H](O[C@H]3[C@H](O)[C@@H](O)[C@H](N=C(N)N)[C@@H](O)[C@@H]3N=C(N)N)O[C@@H](C)[C@]2(O)C=O)O[C@@H](CO)[C@H](O)[C@H]1O", "target.or.test.system": "Mycobacterium tuberculosis", "assigned.class": "fulfilled"}
{"compound": "C/C(=C\\COC=O)CCCC(C)CCCC(C)CCCC(C)C (stereo not drawn)", "target.or.test.system": "Mycobacterium tuberculosis", "assigned.class": "not fulfilled"}
{"compound": "CO[C@H]1/C=C/O[C@@]2(C)Oc3c(C)c(O)c4c(O)c(c(/C=N/N5CCN(C)CC5)c(O)c4c3C2=O)NC(=O)/C(C)=C\\C=C\\[C@H](C)[C@H](O)[C@@H](C)[C@@H](O)[C@@H](C)[C@H](OC(C)=O)[C@@H]1C", "target.or.test.system": "Mycobacterium tuberculosis", "assigned.class": "fulfilled"}
{"compound": "C/C(=C\\C=O)CCCC(C)CCCC(C)CCCC(C)C (stereo not drawn)", "target.or.test.system": "Mycobacterium tuberculosis", "assigned.class": "not fulfilled"}
{"compound": "C/C(=C\\CO)CCCC(C)CCCC(C)CCCC(C)C (stereo not drawn)", "target.or.test.system": "Mycobacterium tuberculosis", "assigned.class": "not fulfilled"}
{"compound": "C/C(=C\\C=N\\O)CCCC(C)CCCC(C)CCCC(C)C (stereo not drawn)", "target.or.test.system": "Mycobacterium tuberculosis", "assigned.class": "not fulfilled"}
{"compound": "CCOC(=O)CO/N=C/C=C(\\C)CCCC(C)CCCC(C)CCCC(C)C (stereo not drawn)", "target.or.test.system": "Mycobacterium tuberculosis", "assigned.class": "not fulfilled"}
